TESTED SYSTEM: Beta-3 adrenergic receptor (Homo sapiens)
Sequence (P13945 whole entry): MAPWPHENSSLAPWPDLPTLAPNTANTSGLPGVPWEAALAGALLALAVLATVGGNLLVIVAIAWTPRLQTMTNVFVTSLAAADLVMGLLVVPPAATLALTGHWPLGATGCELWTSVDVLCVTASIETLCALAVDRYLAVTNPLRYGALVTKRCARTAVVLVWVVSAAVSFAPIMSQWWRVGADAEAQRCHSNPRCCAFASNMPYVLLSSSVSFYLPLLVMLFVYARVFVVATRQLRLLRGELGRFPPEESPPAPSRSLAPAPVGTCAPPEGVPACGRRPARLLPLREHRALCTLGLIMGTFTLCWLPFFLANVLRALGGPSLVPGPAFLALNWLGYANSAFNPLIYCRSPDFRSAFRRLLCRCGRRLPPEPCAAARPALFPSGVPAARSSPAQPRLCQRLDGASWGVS
TEST SUMMARY: Binding affinity to andrenergic beta3 receptor (unknown origin) assessed as inhibition of radioligand binding by radioligand competition binding assay
ENDPOINT: pKi
# reply with the number alone; pKi is -log10 of concentration in mol/L

Give the observed pKi of `COc1cc2c3c(c1OC)-c1ccccc1[C@@H](O)[C@@H]3NCC2` for Beta-3 adrenergic receptor (Homo sapiens).
6.51

----------
TESTED SYSTEM: 5-hydroxytryptamine receptor 2B (Homo sapiens)
Sequence (P41595 whole entry): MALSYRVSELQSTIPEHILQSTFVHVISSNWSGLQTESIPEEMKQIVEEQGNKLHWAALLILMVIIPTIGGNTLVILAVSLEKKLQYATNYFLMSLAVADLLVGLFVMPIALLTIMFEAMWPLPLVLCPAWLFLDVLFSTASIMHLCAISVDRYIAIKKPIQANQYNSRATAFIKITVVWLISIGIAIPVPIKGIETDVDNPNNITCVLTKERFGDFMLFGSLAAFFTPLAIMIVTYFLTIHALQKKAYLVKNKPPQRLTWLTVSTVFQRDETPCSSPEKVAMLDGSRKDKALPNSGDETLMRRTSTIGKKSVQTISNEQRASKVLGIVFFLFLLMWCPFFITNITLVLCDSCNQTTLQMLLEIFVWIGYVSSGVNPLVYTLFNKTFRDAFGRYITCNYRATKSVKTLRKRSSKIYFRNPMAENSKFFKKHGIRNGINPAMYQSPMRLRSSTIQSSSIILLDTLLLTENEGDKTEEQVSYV
TEST SUMMARY: Binding affinity to 5-HT2B receptor (unknown origin) assessed as inhibition of radioligand binding by radioligand competition binding assay
ENDPOINT: Ki (nM)
Give the value in nM but do not write nM after it.

Answer with the recorded Ki for the molecule listed here: `COc1cc2c3c(c1OC)-c1ccccc1[C@@H](O)[C@@H]3NCC2`
246

Source listed as ChEMBL document CHEMBL4257493.
